experiment: Selectivity index, ratio of Ki for human CatL to Ki for Trypanosoma brucei rhodesiense rhodesain
Please mark 1 if the recorded Ratio Ki is equal to or greater than 4, and 0 if it falls below.

INPUT: Decide: Ratio Ki of "N#Cc1ccc(C[C@H](NC(=O)c2cnn(-c3ccc(F)cc3)n2)C(=O)NC2(C#N)CC2)cc1Cl" >= 4?
OUTPUT: 1

INPUT: Is Ratio Ki at least 4? Consider "N#CC1(NC(=O)[C@H](Cc2ccc(OC(F)(F)F)c(Cl)c2)NC(=O)c2cnn(-c3cccnc3)n2)CC1"
OUTPUT: 1

INPUT: Is Ratio Ki at least 4? Consider "N#CC1(NC(=O)[C@H](Cc2ccc(OC(F)(F)F)c(Cl)c2)NC(=O)c2cnn(C3COC3)n2)CC1"
OUTPUT: 0

INPUT: Has "N#CC1(NC(=O)[C@H](Cc2ccc(OC(F)(F)F)c(Cl)c2)NC(=O)c2cnn(C3CCC3)n2)CC1" a recorded Ratio Ki greater than or equal to 4?
OUTPUT: 0

INPUT: Dear colleague, could you confirm whether "N#CC1(NC(=O)[C@H](Cc2ccc(Cl)c(Cl)c2)NC(=O)c2cnn(C3CCC3)n2)CC1" has Ratio Ki at or above 4?
OUTPUT: 0

INPUT: Dear colleague, could you confirm whether "N#CC1(NC(=O)[C@H](Cc2ccc(Cl)c(Cl)c2)NC(=O)c2cnn(C3CCOCC3)n2)CC1" has Ratio Ki at or above 4?
OUTPUT: 1

INPUT: Hi, just wondering whether "N#CC1(NC(=O)[C@H](Cc2ccc(OC(F)(F)F)c(Cl)c2)NC(=O)c2cnn(C3CCCCC3)n2)CC1" shows Ratio Ki of 4 or higher.
OUTPUT: 1

INPUT: # check: Ratio Ki of "N#CC1(NC(=O)[C@H](Cc2ccc(Cl)c(Cl)c2)NC(=O)c2cnn(C3CC(F)(F)C3)n2)CC1" is greater than or equal to 4
OUTPUT: 0

INPUT: Has N#CC1(NC(=O)[C@H](Cc2ccc(OC(F)(F)F)c(Cl)c2)NC(=O)c2cnn(C3CCNC3)n2)CC1 (some centres not stated) a recorded Ratio Ki greater than or equal to 4?
OUTPUT: 0

INPUT: Determine whether measured Ratio Ki meets or exceeds 4 for "CC(C)n1ncc(C(=O)N[C@@H](Cc2ccc(OC(F)(F)F)c(Cl)c2)C(=O)NC2(C#N)CC2)n1"
OUTPUT: 0

INPUT: Test whether the compound "N#CC1(NC(=O)[C@H](Cc2ccc(OC(F)(F)F)c(Cl)c2)NC(=O)c2cnn(-c3ccc(Cl)cc3)n2)CC1" records Ratio Ki of 4 or higher.
OUTPUT: 1

INPUT: hey, is Ratio Ki for this one >= 4? "N#CC1(NC(=O)[C@H](Cc2ccc(OC(F)(F)F)c(Cl)c2)NC(=O)c2cnn(-c3ccc(F)cc3)n2)CC1"
OUTPUT: 1

INPUT: In plain terms: is recorded Ratio Ki at least 4 for "N#CC1(NC(=O)[C@H](Cc2ccc(Cl)c(Cl)c2)NC(=O)c2cnn(C3COC3)n2)CC1" ?
OUTPUT: 0

INPUT: Record "CSc1ccc(-n2ncc(C(=O)N[C@@H](Cc3ccc(OC(F)(F)F)c(Cl)c3)C(=O)NC3(C#N)CC3)n2)cc1" ; criterion: Ratio Ki no lower than 4. Met?
OUTPUT: 1

----------
Assay read-out pKi; system under study: Procathepsin L (Homo sapiens).
Sequence (P07711 whole entry): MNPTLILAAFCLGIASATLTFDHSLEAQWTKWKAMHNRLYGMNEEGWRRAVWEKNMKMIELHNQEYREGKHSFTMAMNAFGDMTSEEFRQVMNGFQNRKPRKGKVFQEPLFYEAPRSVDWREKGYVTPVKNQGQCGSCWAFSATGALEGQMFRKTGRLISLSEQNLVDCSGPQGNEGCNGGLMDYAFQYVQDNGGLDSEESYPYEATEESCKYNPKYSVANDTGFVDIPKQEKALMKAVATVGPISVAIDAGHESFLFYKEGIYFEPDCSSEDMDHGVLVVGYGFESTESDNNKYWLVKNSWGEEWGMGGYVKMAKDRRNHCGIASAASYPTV
In plain terms, pKi is the concentration in mol/L turned into minus its base-10 logarithm.

INPUT: Any idea what pKi was measured for "CC(C)n1ncc(C(=O)N[C@@H](Cc2ccc(OC(F)(F)F)c(Cl)c2)C(=O)NC2(C#N)CC2)n1" ?
OUTPUT: 8.40

INPUT: Consider the compound "N#CC1(NC(=O)[C@H](Cc2ccc(Cl)c(Cl)c2)NC(=O)c2cnn(C3CC(F)(F)C3)n2)CC1" and give its measured pKi.
OUTPUT: 7.19

INPUT: Give its pKi value. Item: "N#CC1(NC(=O)[C@H](Cc2ccc(OC(F)(F)F)c(Cl)c2)NC(=O)c2cnn(-c3ccc(Cl)cc3)n2)CC1"
OUTPUT: 6.33

INPUT: So what's the measured pKi for this one? "N#CC1(NC(=O)[C@H](Cc2ccc(OC(F)(F)F)c(Cl)c2)NC(=O)c2cnn(C3COC3)n2)CC1"
OUTPUT: 7.60

INPUT: State the recorded pKi for this entry: "N#CC1(NC(=O)[C@H](Cc2ccc(Cl)cc2)NC(=O)c2cnn(-c3ccc(F)cc3)n2)CC1"
OUTPUT: 5.82

INPUT: Which pKi value is on record for N#CC1(NC(=O)[C@H](Cc2ccc(OC(F)(F)F)c(Cl)c2)NC(=O)c2cnn(C3CCNC3)n2)CC1 (some centres not stated) ?
OUTPUT: 7.85

INPUT: Need pKi of "N#Cc1ccc(C[C@H](NC(=O)c2cnn(-c3ccc(F)cc3)n2)C(=O)NC2(C#N)CC2)cc1Cl" , thanks.
OUTPUT: 6.60

INPUT: Reported pKi for "CSc1ccc(-n2ncc(C(=O)N[C@@H](Cc3ccc(OC(F)(F)F)c(Cl)c3)C(=O)NC3(C#N)CC3)n2)cc1" : what is it?
OUTPUT: 5.95

INPUT: Query: pKi; subject: "N#CC1(NC(=O)[C@H](Cc2ccc(Cl)c(Cl)c2)NC(=O)c2cnn(C3COC3)n2)CC1"
OUTPUT: 7.11

INPUT: For the compound "N#CC1(NC(=O)[C@H](Cc2ccc(Cl)c(Cl)c2)NC(=O)c2cnn(C3CCOCC3)n2)CC1" , what pKi is on record?
OUTPUT: 7.03

INPUT: What does the data say about its pKi? Entry: "Cn1ncc(C(=O)N[C@@H](Cc2ccc(OC(F)(F)F)c(Cl)c2)C(=O)NC2(C#N)CC2)n1"
OUTPUT: 7.82

INPUT: Given the entry "N#CC1(NC(=O)[C@H](Cc2ccc(OCc3ccccc3)cc2)NC(=O)c2cnn(-c3ccc(F)cc3)n2)CC1" , report its measured pKi.
OUTPUT: 5.83

----------
assay: Solubility of the compound at pH 6.5 by LYSA; assay type: physicochemical; details: buffer
Lab note: anything with solubility at or over 5 µg/mL counts as TRUE; the rest go in FALSE.

INPUT: # bool: solubility of "N#CC1(NC(=O)[C@H](Cc2ccc(OC(F)(F)F)c(Cl)c2)NC(=O)c2cnn(-c3ccc(F)nc3)n2)CC1" >= 5 µg/mL
OUTPUT: FALSE

INPUT: Does the reported solubility for "N#CC1(NC(=O)[C@H](Cc2ccc(OCc3ccccc3)cc2)NC(=O)c2cnn(-c3ccc(F)cc3)n2)CC1" fall at or above the 5 µg/mL mark?
OUTPUT: FALSE

INPUT: hey, is solubility for this one >= 5 µg/mL? "N#CC1(NC(=O)[C@H](Cc2ccc(OC(F)(F)F)c(Cl)c2)NC(=O)c2cnn(C3COC3)n2)CC1"
OUTPUT: FALSE

INPUT: Confirm if solubility reported for the compound "N#CC1(NC(=O)[C@H](Cc2ccc(Cl)cc2)NC(=O)c2cnn(-c3ccc(F)cc3)n2)CC1" is 5 µg/mL or above.
OUTPUT: FALSE

INPUT: Please tell me: is the compound "N#CC1(NC(=O)[C@H](Cc2ccc(OC(F)(F)F)c(Cl)c2)NC(=O)c2cnn(-c3ccc(F)cc3)n2)CC1" at or over 5 µg/mL in terms of solubility?
OUTPUT: FALSE

INPUT: Quick check: does "CC(C)(C)n1ncc(C(=O)N[C@@H](Cc2ccc(OC(F)(F)F)c(Cl)c2)C(=O)NC2(C#N)CC2)n1" have solubility greater than or equal to 5 µg/mL?
OUTPUT: FALSE

INPUT: Given "Cn1ncc(C(=O)N[C@@H](Cc2ccc(OC(F)(F)F)c(Cl)c2)C(=O)NC2(C#N)CC2)n1" , state whether its solubility is at least 5 µg/mL.
OUTPUT: TRUE

INPUT: Could you please find out whether "N#CC1(NC(=O)[C@H](Cc2ccc(OC(F)(F)F)c(Cl)c2)NC(=O)c2cnn(C3CC(F)(F)C3)n2)CC1" has solubility that meets 5 µg/mL or exceeds it?
OUTPUT: FALSE

INPUT: Does the compound "CC(C)n1ncc(C(=O)N[C@@H](Cc2ccc(OC(F)(F)F)c(Cl)c2)C(=O)NC2(C#N)CC2)n1" have recorded solubility that is 5 µg/mL or more?
OUTPUT: FALSE

INPUT: Threshold query (solubility >= 5 µg/mL) on "N#CC1(NC(=O)[C@H](Cc2ccc(OC(F)(F)F)c(Cl)c2)NC(=O)c2cnn(C3CCCCC3)n2)CC1"
OUTPUT: FALSE

INPUT: Could you verify whether the entry "CSc1ccc(-n2ncc(C(=O)N[C@@H](Cc3ccc(OC(F)(F)F)c(Cl)c3)C(=O)NC3(C#N)CC3)n2)cc1" shows solubility of no less than 5 µg/mL?
OUTPUT: FALSE

INPUT: Given "N#CC1(NC(=O)[C@H](Cc2ccc(OCC3CCC3)c(Cl)c2)NC(=O)c2cnn(-c3ccc(F)cc3)n2)CC1" , state whether its solubility is at least 5 µg/mL.
OUTPUT: FALSE

INPUT: Decide: solubility of "N#Cc1ccc(C[C@H](NC(=O)c2cnn(-c3ccc(F)cc3)n2)C(=O)NC2(C#N)CC2)cc1Cl" >= 5 µg/mL?
OUTPUT: FALSE

INPUT: Can N#CC1(NC(=O)[C@H](Cc2ccc(OC(F)(F)F)c(Cl)c2)NC(=O)c2cnn(C3CCNC3)n2)CC1 (some centres undefined) be said to have solubility at or above 5 µg/mL?
OUTPUT: TRUE

INPUT: Reported solubility reaches at least 5 µg/mL for "N#CC1(NC(=O)[C@H](Cc2ccc(OC(F)(F)F)c(Cl)c2)NC(=O)c2cnn(C3CCOCC3)n2)CC1" ?
OUTPUT: TRUE

INPUT: Please indicate if the recorded solubility for "N#CC1(NC(=O)[C@H](Cc2ccc(OC(F)(F)F)c(Cl)c2)NC(=O)c2cnn(C3CCC3)n2)CC1" meets or exceeds 5 µg/mL.
OUTPUT: TRUE

INPUT: Has "N#CC1(NC(=O)[C@H](Cc2ccc(OC(F)(F)F)c(Cl)c2)NC(=O)c2cnn(-c3ccc(Br)cc3)n2)CC1" a recorded solubility greater than or equal to 5 µg/mL?
OUTPUT: FALSE

INPUT: Hello, I need to know if "CC(C)C[C@H](NC(=O)c1cnn(-c2ccc(F)cc2)n1)C(=O)NC1(C#N)CC1" has measured solubility not below 5 µg/mL. Thanks!
OUTPUT: TRUE

INPUT: Is solubility at least 5 µg/mL? Consider "N#CC1(NC(=O)[C@H](Cc2ccc(OC(F)(F)F)c(Cl)c2)NC(=O)c2cnn(-c3ccncc3)n2)CC1"
OUTPUT: TRUE
